Biological target: Cytochrome P450 3A4 (Homo sapiens) (UniProt P08684)
Sequence (P08684 whole entry, looked up): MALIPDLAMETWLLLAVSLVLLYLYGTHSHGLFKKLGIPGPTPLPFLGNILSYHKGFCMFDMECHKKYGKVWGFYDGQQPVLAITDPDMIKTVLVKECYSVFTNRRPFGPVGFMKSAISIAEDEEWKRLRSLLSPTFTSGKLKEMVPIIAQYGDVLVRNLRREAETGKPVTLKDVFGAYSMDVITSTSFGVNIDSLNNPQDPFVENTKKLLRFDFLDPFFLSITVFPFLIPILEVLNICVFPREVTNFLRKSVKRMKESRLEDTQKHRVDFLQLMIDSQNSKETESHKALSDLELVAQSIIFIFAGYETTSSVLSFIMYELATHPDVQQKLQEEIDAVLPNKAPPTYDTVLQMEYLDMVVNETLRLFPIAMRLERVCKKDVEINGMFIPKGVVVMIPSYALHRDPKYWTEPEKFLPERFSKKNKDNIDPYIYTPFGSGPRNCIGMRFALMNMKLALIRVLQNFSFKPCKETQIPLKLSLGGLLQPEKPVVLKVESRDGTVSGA
Assay: Cytochrome panel assay with activity outcomes
Conditions: recombinant CYP, pro-luciferin dealkylation, luminescence, p450-cyp3a4; series mostly up to 57.1 µM
Out of some 16,000 compounds screened, about 5,100 (32%) were called active. Roughly 25% stayed inconclusive and do not appear here. Calls come from the whole dose curve; as a rule, active = well fitted curve in the direction sought with a large enough effect; inconclusive = small, poorly fitted or top-dose-only effect, or effect the other way; inactive = no such curve, though single readings can be large or run the other way. The list shows a part of the results.
Classes to choose from: active, inactive

Solved cases below.
COc1ncc2nc(-c3ccc(Cl)cc3)c(=O)n(C[C@H]3CCCO3)c2n1 | active
COc1cc(CNCc2cccs2)ccc1OCC(N)=O | inactive
CN(C)c1ncc2nc(-c3ccc(Cl)cc3)c(=O)n(C[C@H]3CCCO3)c2n1 | inactive
O=S(=O)(Nc1nc(-c2sccc2Cl)cs1)c1cc(Cl)ccc1Cl | active
CCOC(=O)C(=CNc1ncccc1C)C(=O)OCC | active
CCOC(=O)c1nc(N)sc1C(=O)OCC | inactive
CCOC(=O)c1sc(=N)n(-c2ccc(OC)cc2)c1C | active
CCN(CC)C(=O)c1ccc(O)c(OC)c1 | inactive
CCOC(=O)/C(=C/Nc1ccccc1)[N+](=O)[O-] | inactive
CCOC(=O)N1CCN(C(=O)CNCc2cccs2)CC1 | inactive

Incoming: Tell me the assay call for NCCCCC(=O)O please.
Outgoing: inactive

Incoming: Tell me the assay call for CCOC(=O)C(=CNc1cccc(C)c1C)C(=O)OCC please.
Outgoing: active

Incoming: Tell me the assay call for COc1cc(CNCc2cccs2)cc(Br)c1OC please.
Outgoing: active

---

Biological target: Cytochrome P450 3A4 (Homo sapiens) (UniProt P08684)
Assay: Cytochrome panel assay with activity outcomes; for activity, negative = inhibition: % is set by controls: 0 for no effect and ±100 for the full control effect
Conditions: recombinant CYP, pro-luciferin dealkylation, luminescence, p450-cyp3a4; series mostly up to 57.1 µM
Description: The P450 gene superfamily is involved in the metabolism and clearance of xenobiotics. This assay used various human CYP P450 isozymes to measure the dealkylation of various pro-luciferin substrates to luciferin. The luciferin is then measured by luminescence after the addition of a luciferase detection reagent. […] Inhibitors and some substrates limit the production of luciferin, and decrease measured luminescence. […] 8, Detection, 1 sec, ViewLux luminescent read […]
The whole screen tested about 16,000 compounds, of which about 5,100 (32%) were called active. Roughly 25% stayed inconclusive and do not appear here. The list shows a part of the results.
quantityMeasured: activity, negative = inhibition

Solved cases (5 shown):
COc1ccc(S(=O)(=O)Nc2ccc(S(=O)(=O)N3CCCCC3)cc2)cc1C | -19.1% [at 2.29 µM] (inactive)
COC(=O)c1sccc1NC(=O)CSc1ccc(Cl)cc1 | -2.63% [at 2.29 µM] (inactive)
N#C/C(=C\c1ccccc1)c1nc2ncccc2[nH]1 | -24% [at 2.29 µM] (inactive)
NC(=S)SCCC(=O)O | -7.17% [at 11.4 µM] (inactive)
N#C/C(=C\c1ccc(Cl)cc1)c1nc2ncccc2[nH]1 | -7.91% [at 2.29 µM] (inactive)

Incoming: Query (molecule): Cn1c(=O)c2c(nc(C(=N)SCC(=O)O)n2C)n(C)c1=O ; field requested: activity, negative = inhibition
Outgoing: -27.7% [at 11.4 µM] (inactive)

Incoming: Query (molecule): Cc1ccnc(NS(=O)(=O)c2ccc(N=[N+]=[N-])cc2)n1 ; field requested: activity, negative = inhibition
Outgoing: 1.05% [at 11.4 µM] (inactive)

Incoming: Query (molecule): O=C(N/N=C/C1CCCCC1)c1ccccn1 ; field requested: activity, negative = inhibition
Outgoing: -7.05% [at 11.4 µM] (inactive)
